# Test system: P388 murine leukemia
# EXPERIMENTAL DETAILS: In vivo antitumor activity against P388 leukemia (ip tumor implant / ip drug);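 further: dosing started the day after tumor implantation, and %T/C expresses median survival of treated mice relative to the saline-treated control group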
# STUDY CONDITIONS: dose 0.2 mg/kg/day ip, once daily for five days; CDF1 female mice, ip P388
Starred links: 1 amine or outer side, 2 acyl side, 3 side chain; linkers in the order of their positions; H or OH if unused. Positions of bridges follow the written chain, without caps; N, C: chain ends. Non-standard residues stand in square brackets, D forms with d. Residues, ends and D or L forms follow the SMILES beside them. Chains are numbered I, II in the order given. ξ: configuration not given here. *: point of attachment. X2 = CC(C)C(=O)OC1CC=NN([*:1])C1C(=O)[*:2]; ξNMeVal(3-OH) = CNC(C(=O)O)C(C)(C)O; X1 = COc1ccc2nc(C(=O)*)cnc2c1; Sar = CNCC(=O)O
RECORDED ENDPOINT: Median Survival Time

COMPOUND	TEST SYSTEM	RECORDED ENDPOINT	MEASURED
COc1ccc2nc(C(=O)NC3COC(=O)C(C(C)(C)O)N(C)C(=O)CN(C)C(=O)CNC(=O)C4C(OC(=O)C(C)C)CC=NN4C(=O)C(NC(=O)c4cnc5cc(OC)ccc5n4)COC(=O)C(C(C)(C)O)N(C)C(=O)CN(C)C(=O)CNC(=O)C4C(OC(=O)C(C)C)CC=NN4C3=O)cnc2c1 (stereo not shown) [BMY-45012] (I: X1-S[X2]G[Sar][ξNMeVal(3-OH)] / II: X1-S[X2]G[Sar][ξNMeVal(3-OH)]; ester I:1-II:C, I:C-II:1; configuration not given here)	P388 murine leukemia	Median Survival Time	14.5
